ASSAYED_TARGET: T1, hRev1 330-833 EY (human, UniProt Q9UBZ9 330-833, E466A;Y470A)
T1 sequence: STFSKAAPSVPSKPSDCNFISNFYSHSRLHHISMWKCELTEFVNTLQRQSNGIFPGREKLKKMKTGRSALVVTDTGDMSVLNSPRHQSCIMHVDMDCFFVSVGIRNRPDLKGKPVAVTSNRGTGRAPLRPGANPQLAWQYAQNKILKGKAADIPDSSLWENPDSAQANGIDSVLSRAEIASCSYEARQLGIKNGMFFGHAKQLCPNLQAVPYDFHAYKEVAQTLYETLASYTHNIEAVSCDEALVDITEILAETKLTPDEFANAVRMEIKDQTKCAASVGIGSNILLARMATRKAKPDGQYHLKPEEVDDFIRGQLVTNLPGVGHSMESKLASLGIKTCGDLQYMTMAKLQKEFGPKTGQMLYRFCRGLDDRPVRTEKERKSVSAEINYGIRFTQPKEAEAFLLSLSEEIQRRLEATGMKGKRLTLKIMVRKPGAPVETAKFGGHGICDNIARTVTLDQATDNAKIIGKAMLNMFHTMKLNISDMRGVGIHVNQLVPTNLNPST
PROTOCOL: fluorescence polarization
READOUT_TYPE: pKd
Value format note: pKd is -log10 of concentration (mol/L); just state the number.

Solved cases (6 shown):
BINDER | pKd
13/42-mer non-G4 (mixed) DNA 1: GTGAGATGTTGACCATGGGTGCGTCTGCGGCTGGCTCGAGGC DNA 2: TTTGCCTCGAGCCAGC | 6.60
TGCTTGCTGTGCTTGCTATGAGATGAT (ssDNA) [ss non-G4 TBA] | 6.82
23/42-mer non-G4 (mixed) DNA 1: GTGAGATGTTGACCATGGGTGCGTCTGCGGCTGGCTCGAGGC DNA 2: TTTGCCTCGAGCCAGCCGCAGACGCA | 6.52
GTGAGATGTTGACCATGGGTGCGTCTGCGGCTGGCTCGAGGC (ssDNA) [ss-42-mer non-G4] | 6.57
p/t non-G4 TBA (mixed) DNA 1: TGCTTGCTGTGCTTGCTATGAGATGAT DNA 2: ATCATCTCATA | 6.64
AGCGTGCGTAGCGTGCGTTATGAGATGAT (ssDNA) [ss non-G4 Myc] | 6.19

Kindly consider the entry below.
*Q* Suppose we examine the binder p/t non-G4 Myc (mixed) DNA 1: AGCGTGCGTAGCGTGCGTTATGAGATGAT DNA 2: ATCATCTCATA ; what pKd value has been reported?
*A* 6.08
